Data origin, for the record: patent US20160106102A1

- Method notes: log P determination by LC-MS in the acidic range
- Format: physicochemical
- Conditions: amines of the formula (II-1); acidic range pH 2.7 (0.1% formic acid/acetonitrile) or pH 2.3 (0.1% phosphoric acid/acetonitrile)
Categories are assigned from the measured log P (acid) using these intervals: small value: < 0.4; mid value: ≥ 0.4 and < 0.8; large value: ≥ 0.8

Completed entries (count: 5):
Compound	Category
Cc1cc(N)nn1Cc1ncnn1C	small value
Cc1cc(C)nc(Cn2nc(N)cc2C)n1	mid value
C#CCn1nc(N)cc1C	small value
Cc1cc(N)nn1C(F)F	mid value
Cc1cc(N)nn1Cn1c(=O)n(C)c(=O)n1C	small value

Bin this entry: Cc1cc(N)nn1Cc1nccs1
small value

Bin this entry: Cc1cc(N)nn1Cn1c(C)nn(C)c1=O
small value

Bin this entry: Nc1cc(C(F)(F)F)n(Cc2ncccn2)n1
large value

Bin this entry: Nc1ccn(C(CF)CF)n1
small value

Bin this entry: Cc1ccnn1Cn1nc(N)cc1C
mid value

Bin this entry: Cc1cc(N)nn1Cc1ncccc1C#N
small value

Bin this entry: Cc1cc(N)nn1Cc1cccc(OC(F)(F)F)c1
large value
